# System: 186277-243-T-J2-PDC complex spheroids, viability
# method.notes: Anticancer human tumor 186277-243-T-J2-PDC patient-derived colon adenocarcinoma cell line growth inhibition [RAS]
# condition.parameters: second compound 0.316 µM; first compound 0.01 µM; hits give low values

compound	target.system	viability, T/C [%]
O=C(c1ccc(F)c(F)c1Nc1ccc(I)cc1F)N1CC(O)([C@@H]2CCCCN2)C1 + C#Cc1c(F)ccc2cc(O)cc(-c3ncc4c(N5CC6CCC(C5)N6)nc(OCC56CCCN5CC(F)C6)nc4c3F)c12	186277-243-T-J2-PDC complex spheroids, viability	17.5
O=C(c1ccc(F)c(F)c1Nc1ccc(I)cc1F)N1CC(O)([C@@H]2CCCCN2)C1 + C=CC(=O)N1CCN(c2nc(OCC3CCCN3C)nc3c(F)c(-c4nc(N)cc(C)c4C(F)(F)F)c(Cl)cc23)C(C)C1	186277-243-T-J2-PDC complex spheroids, viability	92.2
CC(C)n1nc(-c2ccc3oc(N)nc3c2)c2c(N)ncnc21 + C#Cc1c(F)ccc2cc(O)cc(-c3ncc4c(N5CC6CCC(C5)N6)nc(OCC56CCCN5CC(F)C6)nc4c3F)c12	186277-243-T-J2-PDC complex spheroids, viability	12.1

* * *

# Tested on: 186277-243-T-J2-PDC complex spheroids, viability
# method.notes: Anticancer human tumor 186277-243-T-J2-PDC cell line growth inhibition [RAS]; active means viability on the fitted dose curve at most 10% of control; inactive means the rest;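 further: spheroids exposed to compounds for 7 days before viability read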
# condition.parameters: second compound 0.3 µM; first compound 10 µM
Possible outcomes: YES = active, NO = inactive

compound	assigned.category
CCC(CC)c1cc(NC2CCC(N)C2)n2nccc2n1 (stereo not drawn) + CCn1c(-c2cccnc2C(C)OC)c2c3cc(ccc31)N1CCOC(CC(NC(=O)C(C(C)C)N(C)C(=O)C3(F)CCN(C(=O)C#CC(C)(C)N(C)C)CC3)C(=O)N3CCCC(N3)C(=O)OCC(C)(C)C2)C1	YES
CC1(O)CCCC1n1c(=O)c(C(F)F)cc2cnc(NC3CCN(S(C)(=O)=O)CC3)nc21 (stereo not drawn) + CCn1c(-c2cccnc2C(C)OC)c2c3cc(ccc31)N1CCOC(CC(NC(=O)C(C(C)C)N(C)C(=O)C3(F)CCN(C(=O)C#CC(C)(C)N(C)C)CC3)C(=O)N3CCCC(N3)C(=O)OCC(C)(C)C2)C1	NO
Cc1nc(N2CCC3(CC2)COC(C)C3N)c(CO)nc1Sc1ccnc(N)c1Cl (stereo not drawn) + CCn1c(-c2cccnc2C(C)OC)c2c3cc(ccc31)N1CCOC(CC(NC(=O)C(C(C)C)N(C)C(=O)C3(F)CCN(C(=O)C#CC(C)(C)N(C)C)CC3)C(=O)N3CCCC(N3)C(=O)OCC(C)(C)C2)C1	NO
C[C@@H](NC(=O)c1ncnc(N)c1Cl)c1ncc(C(=O)Nc2cc(C(F)(F)F)c(Cl)cn2)s1 + CCn1c(-c2cccnc2C(C)OC)c2c3cc(ccc31)N1CCOC(CC(NC(=O)C(C(C)C)N(C)C(=O)C3(F)CCN(C(=O)C#CC(C)(C)N(C)C)CC3)C(=O)N3CCCC(N3)C(=O)OCC(C)(C)C2)C1	NO
CC(C)NCC(C(=O)N1CCN(c2ncnc3c2C(C)CC3O)CC1)c1ccc(Cl)cc1 (stereo not drawn) + CCn1c(-c2cccnc2C(C)OC)c2c3cc(ccc31)N1CCOC(CC(NC(=O)C(C(C)C)N(C)C(=O)C3(F)CCN(C(=O)C#CC(C)(C)N(C)C)CC3)C(=O)N3CCCC(N3)C(=O)OCC(C)(C)C2)C1	NO
CCC(CC)c1cc(NC2CCC(N)C2)n2nccc2n1 (stereo not drawn) + CCn1c(-c2cc(N3CCN(C)CC3)cnc2C(C)OC)c2c3cc(ccc31)-c1csc(n1)CC(NC(=O)C1CC1C)C(=O)N1CCCC(N1)C(=O)OCC(C)(C)C2	YES
CC(Nc1ccc2c(c1)OCCn1cc(N3C(=O)OCC3C(F)F)nc1-2)C(N)=O (stereo not drawn) + CCn1c(-c2cccnc2C(C)OC)c2c3cc(ccc31)N1CCOC(CC(NC(=O)C(C(C)C)N(C)C(=O)C3(F)CCN(C(=O)C#CC(C)(C)N(C)C)CC3)C(=O)N3CCCC(N3)C(=O)OCC(C)(C)C2)C1	NO
NC1c2ccccc2OC12CCN(c1cnc3c(N4CCCc5ncccc54)n[nH]c3n1)CC2 (stereo not drawn) + CCn1c(-c2cccnc2C(C)OC)c2c3cc(ccc31)N1CCOC(CC(NC(=O)C(C(C)C)N(C)C(=O)C3(F)CCN(C(=O)C#CC(C)(C)N(C)C)CC3)C(=O)N3CCCC(N3)C(=O)OCC(C)(C)C2)C1	NO
